# Tested on: Plasmodium berghei
# Assay Name: Antiplasmodial activity against drug-sensitive Plasmodium berghei infected in mouse assessed as change in mean survival time at 320 mg/kg, sc administered as single dose 72 hrs post infection measured 60 days postinfection
# Assay type: functional
# Details: route subcutaneous
Metric Name: log10 of MSD (log10 of the value in days)
Hi team, quick reminder: these entries are log10 of MSD (days).

- Compound: "Nc1nc(N)c2cc(SCc3ccccc3)ccc2n1"
  log10 of MSD: 0.69
- Compound: "Nc1nc(N)c2cc(SCc3ccc(Cl)cc3)ccc2n1"
  log10 of MSD: 0.99

Data request: // fetch Plasmodium berghei log10 of MSD for Nc1nc(N)c2cc(SC3CCCCC3)ccc2n1
Data returned: 1.11

Data request: // fetch Plasmodium berghei log10 of MSD for Nc1nc(N)c2cc(OCc3ccc(Cl)cc3)ccc2n1
Data returned: 1.05

Data request: // fetch Plasmodium berghei log10 of MSD for Nc1nc(N)c2cc([S+]([O-])Cc3ccc(Cl)cc3)ccc2n1 (stereo not given)
Data returned: 0.46

Data request: // fetch Plasmodium berghei log10 of MSD for Nc1nc(N)c2cc(SCCc3ccccc3)ccc2n1
Data returned: 1.24

Data request: // fetch Plasmodium berghei log10 of MSD for Nc1nc(N)c2cc(SC34CC5CC(CC(C5)C3)C4)ccc2n1
Data returned: 0.04

Data request: // fetch Plasmodium berghei log10 of MSD for CC(Sc1ccc2nc(N)nc(N)c2c1)c1ccc(Cl)cc1 (stereo not given)
Data returned: 1.23

Data request: // fetch Plasmodium berghei log10 of MSD for Nc1nc(N)c2cc(S(=O)(=O)Cc3ccc(Cl)cc3)ccc2n1
Data returned: -0.05

Data request: // fetch Plasmodium berghei log10 of MSD for Nc1nc(N)c2c(Cl)c(SCc3ccc(Cl)cc3)ccc2n1
Data returned: 0.49

###

# Test system: Plasmodium berghei
# Assay Name: Antiplasmodial activity against drug-sensitive Plasmodium berghei infected in mouse assessed as change in mean survival time at 640 mg/kg, sc administered as single dose 72 hrs post infection
# Type: functional
# Details: route subcutaneous
Metric Name: log10 of MSD (log10 of the value in days)
Hi team, quick reminder: these entries are log10 of MSD (days).

Examples with their reported log10 of MSD follow.
- Compound: "Nc1nc(N)c2c(Cl)c(S(=O)(=O)Cc3ccc(Cl)cc3)ccc2n1"
  log10 of MSD: -1.00
- Compound: "Nc1nc(N)c2cc(SCc3ccccc3)ccc2n1"
  log10 of MSD: 1.03

Data request: Form field: reported log10 of MSD of Nc1nc(N)c2cc(SC34CC5CC(CC(C5)C3)C4)ccc2n1
Data returned: 1.03

###

# Tested on: Staphylococcus aureus
# Assay Name: Antibacterial activity against drug-resistant Staphylococcus aureus S18713 assessed as growth inhibition by Gradient plate test
# Assay type: functional
# MIC per entry

Examples with their reported MIC follow.
- Molecule: "Nc1nc(N)c2cc(SCc3ccc(Cl)cc3)ccc2n1"
  Tgt: "Staphylococcus aureus"
  MIC: "< 0.25 µg/mL"
- Molecule: "CC(Sc1ccc2nc(N)nc(N)c2c1)c1ccc(Cl)cc1 (centres undefined)"
  Tgt: "Staphylococcus aureus"
  MIC: "1 µg/mL"
- Molecule: "Nc1nc(N)c2cc(SC3CCCCC3)ccc2n1"
  Tgt: "Staphylococcus aureus"
  MIC: "10 µg/mL"

Data request: Form field: reported MIC of Nc1nc(N)c2c(Cl)c(S(=O)(=O)Cc3ccc(Cl)cc3)ccc2n1
Data returned: 10 µg/mL

Data request: Form field: reported MIC of Nc1nc(N)c2cc(S(=O)(=O)Cc3ccc(Cl)cc3)ccc2n1
Data returned: > 25 µg/mL

Data request: Form field: reported MIC of Nc1nc(N)c2c(Cl)c([S+]([O-])Cc3ccc(Cl)cc3)ccc2n1 (centres undefined)
Data returned: > 25 µg/mL

Data request: Form field: reported MIC of COc1cc(Cc2cnc(N)nc2N)cc(OC)c1OC
Data returned: < 0.25 µg/mL

Data request: Form field: reported MIC of Nc1nc(N)c2cc([S+]([O-])Cc3ccc(Cl)cc3)ccc2n1 (centres undefined)
Data returned: > 25 µg/mL

Data request: Form field: reported MIC of Nc1nc(N)c2cc(SC34CC5CC(CC(C5)C3)C4)ccc2n1
Data returned: < 0.25 µg/mL

###

# Test system: Plasmodium berghei
# Assay Name: Antiplasmodial activity against drug-sensitive Plasmodium berghei infected in mouse assessed as change in mean survival time at 160 mg/kg, sc administered as single dose 72 hrs post infection
# Format: functional
# Details: route subcutaneous
Metric Name: log10 of MSD (log10 of the value in days)
Hi team, quick reminder: these entries are log10 of MSD (days).

Examples with their reported log10 of MSD follow.
- Compound: "Nc1nc(N)c2cc(S(=O)(=O)Cc3ccc(Cl)cc3)ccc2n1"
  log10 of MSD: -0.52
- Compound: "Nc1nc(N)c2cc(SCc3ccccc3)ccc2n1"
  log10 of MSD: 0.04

Data request: Form field: reported log10 of MSD of Nc1nc(N)c2cc(SC34CC5CC(CC(C5)C3)C4)ccc2n1
Data returned: -0.52

###

# System: Plasmodium berghei
# Assay Name: Antiplasmodial activity against drug-sensitive Plasmodium berghei infected in mouse assessed as change in mean survival time at 640 mg/kg, sc administered as single dose 72 hrs post infection
# Type: functional
# Details: route subcutaneous
Rule: measured MSD below 6 days gets Y; anything equal to or greater than 6 days gets N.

Sample answers from the record:
- Compound: "Nc1nc(N)c2c(Cl)c([S+]([O-])Cc3ccc(Cl)cc3)ccc2n1 (stereo unspecified)"
  Tgt: "Plasmodium berghei"
  Class Name: "Y"
- Compound: "Nc1nc(N)c2c(Cl)c(SCc3ccc(Cl)cc3)ccc2n1"
  Tgt: "Plasmodium berghei"
  Class Name: "N"
- Compound: "Nc1nc(N)c2cc(OCc3ccc(Cl)cc3)ccc2n1"
  Tgt: "Plasmodium berghei"
  Class Name: "N"

Data request: Just wondering, is MSD of Nc1nc(N)c2cc(SCc3ccc(Cl)cc3)ccc2n1 below 6 days?
Data returned: N

###

# log10(MSD) per entry
# Tested on: Plasmodium berghei
# Assay Name: Antiplasmodial activity against drug-sensitive Plasmodium berghei infected in mouse assessed as change in mean survival time at 160 mg/kg, sc administered as single dose 72 hrs post infection
# Assay type: functional
# Details: route subcutaneous
Hi team, quick reminder: these entries are log10 of MSD (days).

- Molecule: "Nc1nc(N)c2c(Cl)c(SCc3ccc(Cl)cc3)ccc2n1"
  log10(MSD): 0.23

Data request: Form field: reported log10(MSD) of Nc1nc(N)c2cc(SC3CCCCC3)ccc2n1
Data returned: 0.96

Data request: Form field: reported log10(MSD) of Nc1nc(N)c2cc(SCCc3ccccc3)ccc2n1
Data returned: 0.65

Data request: Form field: reported log10(MSD) of Nc1nc(N)c2c(Cl)c(S(=O)(=O)Cc3ccc(Cl)cc3)ccc2n1
Data returned: -1.00

Data request: Form field: reported log10(MSD) of Nc1nc(N)c2cc(OCc3ccc(Cl)cc3)ccc2n1
Data returned: 0.86

Data request: Form field: reported log10(MSD) of CC(=O)O.Nc1nc(N)c2cc(NCc3ccc(Cl)c(Cl)c3)ccc2n1
Data returned: 1.00

Data request: Form field: reported log10(MSD) of Nc1nc(N)c2cc(SCc3ccc(Cl)cc3)ccc2n1
Data returned: 0.62

Data request: Form field: reported log10(MSD) of Nc1nc(N)c2cc([S+]([O-])Cc3ccc(Cl)cc3)ccc2n1 (stereo not given)
Data returned: -0.05

Data request: Form field: reported log10(MSD) of Nc1nc(N)c2c(Cl)c([S+]([O-])Cc3ccc(Cl)cc3)ccc2n1 (stereo not given)
Data returned: -0.52

Data request: Form field: reported log10(MSD) of CC(Sc1ccc2nc(N)nc(N)c2c1)c1ccc(Cl)cc1 (stereo not given)
Data returned: 1.04
